Tested on: MT4
Experiment: Cytostatic effect against MT4 cells
Type: cell-based
Conditions: Homo sapiens, read-out: Inhibitory dose-50 MT4
metric name: IC50 (µM)
Numbers only; they are read as µM.

Q: Given Nc1nc2c(ncn2[C@H]2C[C@H](F)[C@@H](CO)O2)c(=O)[nH]1 , state its recorded IC50.
A: 197

Q: Given Nc1nc(N)c2ncn([C@H]3CC[C@@H](CO)O3)c2n1 , state its recorded IC50.
A: 644

Q: Given Nc1nc(N)c2ncn([C@H]3C[C@H](F)[C@@H](CO)O3)c2n1 , state its recorded IC50.
A: 337

Q: Given Nc1nc2c(ncn2[C@H]2CC[C@@H](CO)O2)c(=O)[nH]1 , state its recorded IC50.
A: 942

---

Assay: in vitro
Type: cell-based
Settings: mouse, c3h cells
metric name: CC50

Q: Given Nc1nc(N)c2ncn([C@H]3CC[C@@H](CO)O3)c2n1 , state its recorded CC50.
A: ≥ 200 µM

Q: Given Nc1nc(N)c2ncn([C@H]3C[C@H](F)[C@@H](CO)O3)c2n1 , state its recorded CC50.
A: > 400 µM

Q: Given Nc1nc(N)c2ncn([C@@H]3O[C@H](CO)[C@@H](O)[C@@H]3O)c2n1 , state its recorded CC50.
A: > 400 µM

Q: Given Nc1nc2c(ncn2[C@H]2CC[C@@H](CO)O2)c(=O)[nH]1 , state its recorded CC50.
A: > 400 µM

Q: Given Nc1nc2c(ncn2[C@H]2C[C@H](F)[C@@H](CO)O2)c(=O)[nH]1 , state its recorded CC50.
A: > 400 µM

Q: Given Nc1nc(N)c2ncn([C@H]3C[C@@H](O)[C@@H](CO)O3)c2n1 , state its recorded CC50.
A: > 400 µM

---

System: T-lymphoblast Molt/4F
Assay: Cytostatic effect against Molt/4F cells
Type: cell-based
Conditions: Homo sapiens, presence of DCF (10 µM preincubation), read-out: Inhibitory dose-50 Molt/4F
metric name: pIC50
Scale note: pIC50 = -log10(concentration in M).

Q: Which pIC50 is reported with T-lymphoblast Molt/4F for this entry: Nc1nc(N)c2ncn([C@H]3C[C@H](F)[C@@H](CO)O3)c2n1 ?
A: 3.06

---

Test system: MT4
Assay: Cytostatic effect against MT4 cells
Assay type: cell-based
Details: Homo sapiens, MT4, presence of DCF (10 µM preincubation); read-out: Inhibitory dose-50 MT4
metric name: IC50 (µM)
Numbers only; they are read as µM.

Q: Which IC50 is reported with MT4 for this entry: Nc1nc(N)c2ncn([C@H]3C[C@H](F)[C@@H](CO)O3)c2n1 ?
A: 520

---

System: T-lymphocyte CEM
Assay: Cytostatic effect against CEM cells
Assay type: cell-based
Settings: Homo sapiens, CCRF-CEM, read-out: Inhibitory dose-50 CEM
metric name: IC50

Q: Given Nc1nc(N)c2ncn([C@H]3CC[C@@H](CO)O3)c2n1 [ddDAPR] , state its recorded IC50.
A: 125 µM

Q: Given Nc1nc2c(ncn2[C@H]2C[C@H](F)[C@@H](CO)O2)c(=O)[nH]1 [FddGuo, 3′-fluoro-2′,3′-dideoxyguanosine] , state its recorded IC50.
A: 119 µM

Q: Given Nc1nc(N)c2ncn([C@H]3C[C@H](F)[C@@H](CO)O3)c2n1 [FddDAPR] , state its recorded IC50.
A: 233 µM

Q: Given Nc1nc2c(ncn2[C@H]2CC[C@@H](CO)O2)c(=O)[nH]1 [ddGuo, 2′,3′-Dideoxyguanosine] , state its recorded IC50.
A: 142 µM

Q: Given Nc1nc(N)c2ncn([C@@H]3O[C@H](CO)[C@@H](O)[C@@H]3O)c2n1 [araDAPR, 9-β-D-arabinofuranosyl 2,6-diaminopurine] , state its recorded IC50.
A: > 1000 µM

Q: Given Nc1nc(N)c2ncn([C@H]3C[C@@H](O)[C@@H](CO)O3)c2n1 [XylodDAPR] , state its recorded IC50.
A: > 1000 µM
